Assay: Food effect study, plasma pharmacokinetics
Format: in vivo, human
Conditions: both sexes, human, plasma, po, 20 mg, single oral 20 mg, fed with high-fat, high-calorie meal, N = 18, mean (SD); read-out: Vz/F
Quantity measured: Vd/F

Req: Report Vd/F for Cc1nc(-c2cnc(N3CCN(CCCc4c[nH]c5ccc(C#N)cc45)CC3)nc2)sc1C(N)=O [HEC113995PA·H2O] please.
Resp: 297 L

* * *

Test: Single ascending-dose (SAD) study, plasma pharmacokinetics
Format: in vivo, human
Settings: both sexes, human, plasma, oral; SAD single dose 80 mg, N = 8, mean (SD); read-out: MRT
Quantity measured: MRT

Req: Can you look up the measured MRT of Cc1nc(-c2cnc(N3CCN(CCCc4c[nH]c5ccc(C#N)cc45)CC3)nc2)sc1C(N)=O [HEC113995PA·H2O] for me?
Resp: 40.5 h

* * *

Assay: Single ascending-dose (SAD) study, plasma pharmacokinetics
Assay type: in vivo, human
Settings: both sexes, human, plasma, oral; SAD single dose 60 mg, N = 8, mean (SD); read-out: MRT
Quantity measured: MRT (h)
# output: bare number, implied unit h

Req: Request the reported MRT associated with Cc1nc(-c2cnc(N3CCN(CCCc4c[nH]c5ccc(C#N)cc45)CC3)nc2)sc1C(N)=O [HEC113995PA·H2O]
Resp: 35.3

* * *

Test: Single ascending-dose (SAD) study, plasma pharmacokinetics
Format: in vivo, human
Details: both sexes, human, plasma, oral; SAD single dose 20 mg, N = 8, mean (SD); read-out: AUC0-∞
Quantity measured: AUC(0-inf) (ng·h/mL)
Form entry: value (ng·h/mL) — number only.

Req: # input molecule: Cc1nc(-c2cnc(N3CCN(CCCc4c[nH]c5ccc(C#N)cc45)CC3)nc2)sc1C(N)=O [HEC113995PA·H2O] ; wanted: its AUC(0-inf)
Resp: 1520

* * *

Assay: Multiple ascending-dose (MAD) study, plasma pharmacokinetics
Format: in vivo, human
Conditions: both sexes, human, plasma, oral, 20 mg, MAD 20 mg (N = 9), D1, after standard meal, mean (SD); read-out: AUC0-t
Quantity measured: AUC(0-t) (ng·h/mL)
Provide the reading as a plain figure in ng·h/mL.

Req: Fill in: AUC(0-t) of Cc1nc(-c2cnc(N3CCN(CCCc4c[nH]c5ccc(C#N)cc45)CC3)nc2)sc1C(N)=O [HEC113995PA·H2O] is ___
Resp: 1520

* * *

Assay: Multiple ascending-dose (MAD) study, plasma pharmacokinetics
Format: in vivo, human
Conditions: both sexes, human, plasma, oral; MAD 10 mg (N = 10), D1, fasting, mean (SD); read-out: MRT0-∞
Quantity measured: MRT inf (h)
The response must be a number in h with no trailing unit.

Req: Need MRT inf, item Cc1nc(-c2cnc(N3CCN(CCCc4c[nH]c5ccc(C#N)cc45)CC3)nc2)sc1C(N)=O [HEC113995PA·H2O]
Resp: 40

* * *

Test: Single ascending-dose (SAD) study, plasma pharmacokinetics
Type: in vivo, human
Details: both sexes, human, plasma, oral, 2.5 mg, SAD single dose 2.5 mg, N = 6, mean (SD); read-out: AUC0-t
Quantity measured: AUC(0-t) (ng·h/mL)
Write the value in ng·h/mL as a bare number.

Req: What AUC(0-t) value was documented for this compound, Cc1nc(-c2cnc(N3CCN(CCCc4c[nH]c5ccc(C#N)cc45)CC3)nc2)sc1C(N)=O [HEC113995PA·H2O] ?
Resp: 177

* * *

Experiment: Multiple ascending-dose (MAD) study, plasma pharmacokinetics
Format: in vivo, human
Conditions: both sexes, human, plasma, oral, 10 mg, MAD 10 mg (N = 10), D1, fasting, mean (SD); read-out: Vz/F
Quantity measured: Vd/F
Please give the number followed by its unit.

Req: What measured Vd/F goes with Cc1nc(-c2cnc(N3CCN(CCCc4c[nH]c5ccc(C#N)cc45)CC3)nc2)sc1C(N)=O [HEC113995PA·H2O] ?
Resp: 350 L

* * *

Test: Single ascending-dose (SAD) study, plasma pharmacokinetics
Assay type: in vivo, human
Conditions: both sexes, human, plasma, oral; across single-dose groups 2.5–80 mg; read-out: median time to peak plasma concentration (Tmax), range
Quantity measured: Tmax

Req: Which measured Tmax value corresponds to Cc1nc(-c2cnc(N3CCN(CCCc4c[nH]c5ccc(C#N)cc45)CC3)nc2)sc1C(N)=O [HEC113995PA·H2O] ?
Resp: 5 to 8 h

* * *

Assay: Food effect study, plasma pharmacokinetics
Assay type: in vivo, human
Settings: both sexes, human, plasma, po, 20 mg, single oral 20 mg, fed with standard meal, N = 18, median (min, max)
Quantity measured: Tmax
Output should be the measured figure followed by the unit it is expressed in.

Req: Look up Tmax: Cc1nc(-c2cnc(N3CCN(CCCc4c[nH]c5ccc(C#N)cc45)CC3)nc2)sc1C(N)=O [HEC113995PA·H2O]
Resp: 5 h

* * *

Assay: Single ascending-dose (SAD) study, plasma pharmacokinetics
Type: in vivo, human
Details: both sexes, human, plasma, oral; SAD single dose 40 mg, N = 8, mean (SD)
Quantity measured: k el (s⁻¹)
Kindly answer with a numeric value in s⁻¹, unit omitted.

Req: Can you share its k el? I mean this molecule: Cc1nc(-c2cnc(N3CCN(CCCc4c[nH]c5ccc(C#N)cc45)CC3)nc2)sc1C(N)=O [HEC113995PA·H2O]
Resp: 6.08e-06

* * *

Assay: Food effect study, plasma pharmacokinetics
Type: in vivo, human
Conditions: both sexes, human, plasma; single oral 20 mg, fasted, N = 18, mean (SD)
Quantity measured: AUC(0-inf) (ng·h/mL)
Respond with the bare value in ng·h/mL.

Req: What value of AUC(0-inf) has been recorded for this entry: Cc1nc(-c2cnc(N3CCN(CCCc4c[nH]c5ccc(C#N)cc45)CC3)nc2)sc1C(N)=O [HEC113995PA·H2O]
Resp: 1960

* * *

Experiment: Multiple ascending-dose (MAD) study, plasma pharmacokinetics
Type: in vivo, human
Conditions: both sexes, human, plasma, oral, 40 mg, MAD 40 mg (N = 10), D10, QD after standard meal, mean (SD); read-out: Vss/F
Description: Three drug doses (10, 20 and 40 mg) were utilized. A total of 36 healthy subjects of both genders were assigned randomly to the three groups (n = 12), with10 subjects taking HEC113995PA·H2O tablets and 2 taking placebo. […] Safety and tolerability were evaluated on days 4, 8, 13 and 15. […] The concentration of HEC113995PA·H2O in human plasma samples (K2EDTA) was quantitatively analyzed using the LC-MS/MS method. […]
Quantity measured: Vd/F (L)
Please respond with the number in L and leave the unit unwritten.

Req: Which Vd/F value is on record for Cc1nc(-c2cnc(N3CCN(CCCc4c[nH]c5ccc(C#N)cc45)CC3)nc2)sc1C(N)=O [HEC113995PA·H2O] ?
Resp: 321

* * *

Experiment: Single ascending-dose (SAD) study, plasma pharmacokinetics
Format: in vivo, human
Details: both sexes, human, plasma, oral; SAD single dose 2.5 mg, N = 6, mean (SD)
Experimental: The study comprised a total of 7 dose groups (2.5, 5, 10, 20, 40, 60, and 80 mg groups, respectively). The first dose group (2.5 mg) consisted of 8 subjects, with 6 receiving HEC113995PA·H2O and 2 receiving placebo. […] Drug safety and tolerability were evaluated on day 2 and 4 in the first dose group and on day 4 and 7 in the second to seventh dose groups. […] The concentration of HEC113995PA·H2O in human plasma samples (K2EDTA) was quantitatively analyzed using the LC-MS/MS method. […]
Quantity measured: k el (s⁻¹)
Express the result in s⁻¹ but write the number alone.

Req: Report k el for Cc1nc(-c2cnc(N3CCN(CCCc4c[nH]c5ccc(C#N)cc45)CC3)nc2)sc1C(N)=O [HEC113995PA·H2O] please.
Resp: 6.39e-06

* * *

Assay: Multiple ascending-dose (MAD) study, plasma pharmacokinetics
Assay type: in vivo, human
Conditions: both sexes, human, plasma, oral; MAD 20 mg (N = 9), D10, QD after standard meal, mean (SD); read-out: Css_min
Quantity measured: concentration at 10 day (ng/mL)
Write down the numeric answer in ng/mL and omit the unit.

Req: Give its concentration at 10 day value. Item: Cc1nc(-c2cnc(N3CCN(CCCc4c[nH]c5ccc(C#N)cc45)CC3)nc2)sc1C(N)=O [HEC113995PA·H2O]
Resp: 66.8

* * *

Experiment: Food effect study, plasma pharmacokinetics
Format: in vivo, human
Conditions: both sexes, human, plasma, po, 20 mg, single oral 20 mg, fasted, N = 18, mean (SD)
Quantity measured: MRT (h)
Form entry: value (h) — number only.

Req: Find the recorded MRT belonging to Cc1nc(-c2cnc(N3CCN(CCCc4c[nH]c5ccc(C#N)cc45)CC3)nc2)sc1C(N)=O [HEC113995PA·H2O] and report it.
Resp: 38.3

* * *

Test: Multiple ascending-dose (MAD) study, plasma pharmacokinetics
Format: in vivo, human
Settings: both sexes, human, plasma, oral, 20 mg, MAD 20 mg (N = 9), D10, QD after standard meal, median (min, max)
Quantity measured: Tmax at 10 days (h)
Respond numerically; units are h and should not be typed.

Req: Give the measured Tmax at 10 days of Cc1nc(-c2cnc(N3CCN(CCCc4c[nH]c5ccc(C#N)cc45)CC3)nc2)sc1C(N)=O [HEC113995PA·H2O] .
Resp: 2
